Molecular target: NDM-1 (Klebsiella pneumoniae)
Sequence (C7C422 whole entry, looked up, species assumed): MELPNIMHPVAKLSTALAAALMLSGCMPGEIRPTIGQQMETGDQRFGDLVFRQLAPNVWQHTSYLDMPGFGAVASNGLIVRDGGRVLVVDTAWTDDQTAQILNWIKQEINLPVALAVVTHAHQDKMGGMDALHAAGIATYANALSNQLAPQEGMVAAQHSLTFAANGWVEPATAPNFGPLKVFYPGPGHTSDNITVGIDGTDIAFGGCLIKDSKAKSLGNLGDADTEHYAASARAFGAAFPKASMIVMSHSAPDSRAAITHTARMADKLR
ASSAY_READOUT: pIC50
Field pIC50 (float): negative decimal logarithm of the concentration in molar.

Use the examples below as a reference point.
NC[C@@H](O)CNS(=O)(=O)c1ccc(N2CCC(O)CC2)c(-c2nn[nH]n2)c1S(N)(=O)=O ... 9.25
NS(=O)(=O)c1c(S(=O)(=O)N[C@@H]2CCNC2)ccc(N2CCCC(CO)C2)c1-c1nnn[nH]1 (stereo partly drawn) ... 9.60
NS(=O)(=O)c1c(S(=O)(=O)N[C@@H]2CCNC2)ccc(NCCN2CCNCC2)c1-c1nnn[nH]1 ... 6.79
NS(=O)(=O)c1c(S(=O)(=O)N[C@@H]2CCNC2)ccc(N2CCCCC(O)C2)c1-c1nnn[nH]1 (stereo partly drawn) ... 9.17
NS(=O)(=O)c1c(S(=O)(=O)C2CNC2)ccc(N2CCC(CO)CC2)c1-c1nnn[nH]1 ... 8.99
NCC1CCN(c2ccc(S(=O)(=O)N[C@@H]3CCNC3)c(S(N)(=O)=O)c2-c2nn[nH]n2)C(=O)C1 (stereo partly drawn) ... 8.35
NS(=O)(=O)c1c(S(=O)(=O)N[C@@H]2CCNC2)ccc(N2CCCC(=O)C2=O)c1-c1nn[nH]n1 ... 9.28
NCC(CN)NS(=O)(=O)c1ccc(N2CCC(CO)CC2)c(-c2nnn[nH]2)c1S(N)(=O)=O ... 9.57
NC(=O)C1CCN(c2ccc(S(=O)(=O)N[C@@H]3CCNC3)c(S(N)(=O)=O)c2-c2nn[nH]n2)CCN1 (stereo partly drawn) ... 8.92
NCC(=O)N1CCN(c2ccc(S(=O)(=O)NC[C@H](O)CN)c(S(N)(=O)=O)c2-c2nn[nH]n2)CC1 ... 8.46

Bench note: what pIC50 did NS(=O)(=O)c1c(S(=O)(=O)N[C@@H]2CCNC2)ccc(N2CCC3(CC2)CNC3)c1-c1nnn[nH]1 show?
9.32

Same thing, different compound: NS(=O)(=O)c1c(S(=O)(=O)N[C@@H]2CCNC2)ccc(N2CCCCC2=O)c1-c1nn[nH]n1
9.46

###

Tested on: P. aeruginosa MB9798 (efflux+, IMP-1 plasmid)
Settings: efflux + (MB9798) strain; imipenem at 2 μg/mL; in the presence of a class A, C, D serine β-lactamase inhibitor closely related to relebactam
ASSAY_READOUT: MB9798 MITC95 P. aeruginosa uM Efflux WT (µM)
Numbers only; they are read as µM.

Use the examples below as a reference point.
NS(=O)(=O)c1c(S(=O)(=O)C2CNC2)ccc(N2C[C@H](O)C[C@@H](O)C2)c1-c1nnn[nH]1 ... 100.00
N[C@H]1CCCN(c2ccc(S(=O)(=O)N[C@@H]3CCNC3)c(S(N)(=O)=O)c2-c2nn[nH]n2)C1=O ... 12.50
NC1CCN(c2ccc(S(=O)(=O)N[C@@H]3CCNC3)c(S(N)(=O)=O)c2-c2nn[nH]n2)C(=O)C1 (some centres unmarked) ... 6.25
NCC1CCN(c2ccc(S(=O)(=O)NC[C@@H](O)CN)c(S(N)(=O)=O)c2-c2nnn[nH]2)CC1 ... 0.78
NC[C@@H](O)CNS(=O)(=O)c1ccc(N2CC[C@H](N)C2)c(-c2nn[nH]n2)c1S(N)(=O)=O ... 6.25

Bench note: what MB9798 MITC95 P. aeruginosa uM Efflux WT did NCC(O)C1CCN(c2ccc(S(=O)(=O)NC[C@H](O)CN)c(S(N)(=O)=O)c2-c2nn[nH]n2)CC1 (some centres unmarked) show?
0.78

Same thing, different compound: NS(=O)(=O)c1c(S(=O)(=O)C2CNC2)ccc(N2CCC[C@H](O)C2)c1-c1nnn[nH]1
12.50

Same thing, different compound: NC/C=C1\CCCN(c2ccc(S(=O)(=O)NC[C@H](O)CN)c(S(N)(=O)=O)c2-c2nn[nH]n2)C1 (single isomer, unassigned; isomer b)
6.25

###

Biological target: VIM-1 (Pseudomonas aeruginosa (strain ATCC 15692 / DSM 22644 / CIP 104116 / JCM 14847 / LMG 12228 / 1C / PRS 101 / PAO1), UniProt A0A0F7KYQ8)
Test: biochemical
Settings: CCF2-FA fluorescence assay, 2 hours at 25° C.; read-out: VIM1 IC50
pIC50: −log10 of the molar value.
If the reported pIC50 equals or exceeds 9, assign 1.0. If not, assign 0.0.

NS(=O)(=O)c1c(S(=O)(=O)N[C@@H]2CCNC2)ccc(N2CCC(OCCO)CC2)c1-c1nnn[nH]1 ... 1.0
NS(=O)(=O)c1c(S(=O)(=O)C2CNC2)ccc(N2CCC(CCO)CC2)c1-c1nnn[nH]1 ... 1.0

hey, is pIC50 for this one >= 9? NCCNS(=O)(=O)c1ccc(N2CCC(O)(CN)CC2)c(-c2nn[nH]n2)c1S(N)(=O)=O
0.0

###

Test system: Serratia marcescens expressing IMP-1 (CL5741)
Assay type: cell-based
Conditions: with imipenem 1 μg/ml; 95% inhibition of bacterial growth
ASSAY_READOUT: CL5741 S. marcescens MITC95 IMP (µM)
Numbers only; they are read as µM.

Use the examples below as a reference point.
CN(C)C1(C)CN(c2ccc(S(=O)(=O)N[C@@H]3CCNC3)c(S(N)(=O)=O)c2-c2nnn[nH]2)C1 ... 3.13
NS(=O)(=O)c1c(S(=O)(=O)N[C@@H]2CCNC2)ccc(N2CCCCC2=O)c1-c1nn[nH]n1 ... 1.56

Bench note: what CL5741 S. marcescens MITC95 IMP did NS(=O)(=O)c1c(S(=O)(=O)N[C@@H]2CCNC2)ccc(N2CCC(F)(CO)CC2)c1-c1nnn[nH]1 show?
3.13

###

IC50 values recorded for IMP-1 (Serratia marcescens)
Numbers only; they are read as nM.

NC[C@@H](O)CNS(=O)(=O)c1ccc(N2CCN(C(CO)CO)CC2)c(-c2nn[nH]n2)c1S(N)(=O)=O ... 1.2
NS(=O)(=O)c1c(S(=O)(=O)N[C@@H]2CCNC2)ccc(N2CC[C@H](O)C2)c1-c1nnn[nH]1 ... 11.6
NCCNS(=O)(=O)C1CCN(c2ccc(S(=O)(=O)NC[C@H](O)CN)c(S(N)(=O)=O)c2-c2nn[nH]n2)CC1 [Example 190] ... 0.61
CNCC1CCN(c2ccc(S(=O)(=O)N[C@@H]3CCNC3)c(S(N)(=O)=O)c2-c2nnn[nH]2)CC1 ... 6.8
NS(=O)(=O)c1c(S(=O)(=O)N[C@@H]2CCNC2)ccc(N2CCNCC2)c1-c1nnn[nH]1 ... 26.6

# context switch: different compound, same IC50
Bench note: what IC50 did NCCC1CN(c2ccc(S(=O)(=O)NC[C@H](O)CN)c(S(N)(=O)=O)c2-c2nn[nH]n2)C1 show?
89.6

###

Tested on: P. aeruginosa MB9798 (efflux+, IMP-1 plasmid)
Conditions: fold difference between efflux+ (MB9798) and efflux− (MB9799) strains
ASSAY_READOUT: Efflux ratio
Could you respond with only the numeric value?

CC(N)C1CCN(c2ccc(S(=O)(=O)NC[C@H](O)CN)c(S(N)(=O)=O)c2-c2nnn[nH]2)CC1 (stereo partly shown) ... 2.00
C[N+](C)(C)CCCCNc1ccc(S(=O)(=O)N[C@@H]2CCNC2)c(S(N)(=O)=O)c1-c1nnn[nH]1 ... 8.00
NC[C@@H](O)CNS(=O)(=O)c1ccc(N2CCN(C(CO)CO)CC2)c(-c2nn[nH]n2)c1S(N)(=O)=O ... 1.00
NC[C@@H](O)CNS(=O)(=O)c1ccc(N2CCC(F)(CO)CC2)c(-c2nn[nH]n2)c1S(N)(=O)=O ... 1.00
NC[C@@H](O)CNS(=O)(=O)c1ccc(N[C@H]2C[C@@H](N)C2)c(-c2nnn[nH]2)c1S(N)(=O)=O ... 2.00

Bench note: what Efflux ratio did CN(C)C1(C)CN(c2ccc(S(=O)(=O)N[C@@H]3CCNC3)c(S(N)(=O)=O)c2-c2nnn[nH]2)C1 show?
4.00

Same thing, different compound: CNCC1CCN(c2ccc(S(=O)(=O)N[C@@H]3CCNC3)c(S(N)(=O)=O)c2-c2nnn[nH]2)CC1
2.00

Same thing, different compound: COC1(CO)CCN(c2ccc(S(=O)(=O)N[C@H](C)CN)c(S(N)(=O)=O)c2-c2nn[nH]n2)CC1
1.00

Same thing, different compound: NS(=O)(=O)c1c(S(=O)(=O)C2CNC2)ccc(N2CCN(CCO)CC2)c1-c1nnn[nH]1
4.00

Same thing, different compound: NC[C@@H](O)CNS(=O)(=O)c1ccc(N2CCC(F)(CN)CC2)c(-c2nn[nH]n2)c1S(N)(=O)=O
2.00

Same thing, different compound: NC[C@@H](O)CNS(=O)(=O)c1ccc(N2CCN(CCCO)CC2)c(-c2nnn[nH]2)c1S(N)(=O)=O
2.00

Same thing, different compound: NC[C@@H](O)CNS(=O)(=O)c1ccc(N2CCC3(CC2)CNC(N)=N3)c(-c2nn[nH]n2)c1S(N)(=O)=O
2.00
